target: T1, Proleukin® (aldesleukin) (human, UniProt P60568 21-153, limits assumed); assay: SET assay (solution equilibration titration, MSD)
T1 construct: Variant of human wt IL-2 with C145S (C125S on mature IL-2); also called IL-2 (Proleukin®); human IL-2 (Proleukin)
T1 sequence (P60568 other isoform, or with tags, fused parts or gaps limits assumed): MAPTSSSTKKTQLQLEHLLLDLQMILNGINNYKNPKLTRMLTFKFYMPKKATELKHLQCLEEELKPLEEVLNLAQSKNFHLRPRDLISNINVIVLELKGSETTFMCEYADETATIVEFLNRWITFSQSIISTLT
pKd: −log10 of the molar value.
measured-parameter: pKd

{"binder": "104343 (antibody, human IgG1, kappa, N297A, V domains shown, VH1/VK2, human IgG1 N297A) VH: QVQLVQSGAEVKKPGSSVKVSCKASGYAFTNYLIEWVRQAPGQGLEWMGVINPGSGGTNYNEKFKGRVTITADKSTSTAYMELSSLRSEDTAVYYCARWRGDGYYAYFDVWGQGTTVTVSS VL: DIVLTQSPLSLPVTLGQPASISCKASQSVDYDGDSYMNWYQQRPGQSPRLLIYAASNLESGVPDRFSGSGSGTDFTLKISRVEAEDVGVYYCQQSNEDPYTFGGGTKVEIKR", "recorded-number": 10.12}
{"binder": "104347 (antibody, V domains shown, VH3s/VK3s) VH: QVQLVESGGGVVQPGRSLRLSCAASGYTFSSYLIEWVRQAPGKGLEWVAVINPGSGGTNYADSVKGRFTISADKSKNTAYLQMNSLRAEDTAVYYCARWRGDGYYAYFDVWGQGTTVTVSS VL: EIVLTQSPATLSVSPGERATLSCRASQSVSYDGDSYMNWYQQKPGQAPRLLIYAASNLASGIPARFSGSGSGTEFTLTISSLQSEDAAVYYCQQSNEDPYTFGGGTKVEIK", "recorded-number": 8.00}
{"binder": "104349 (antibody, V domains shown, VH5/VK2) VH: EVQLVQSGAEVKKPGESLKISCKGSGYAFTNYLIEWVRQMPGKGLEWMGVINPGSGGTNYNEKFKGQVTISADKSISTAYLQWSSLKASDTAMYYCARWRGDGYYAYFDVWGQGTTVTVSS VL: DIVLTQSPLSLPVTLGQPASISCKASQSVDYDGDSYMNWYQQRPGQSPRLLIYAASNLESGVPDRFSGSGSGTDFTLKISRVEAEDVGVYYCQQSNEDPYTFGGGTKVEIK", "recorded-number": 10.09}
{"binder": "104348_VH5D98E_VK1 (antibody, V domains shown, Human IgG1 Fc domain with the N297A point mutation) VH: EVQLVQSGAEVKKPGESLKISCKGSGYAFTNYLIEWVRQMPGKGLEWMGVINPGSGGTNYNEKFKGQVTISADKSISTAYLQWSSLKASDTAMYYCARWRGEGYYAYFDVWGQGTTVTVSS VL: AIRLTQSPSSFSASTGDRVTITCKASQSVDYDGDSYMNWYQQKPGKAPKLLIYAASNLESGVPSRFSGSGSGTDFTLTISSLQSEDFATYYCQQSNEDPYTFGGGTKVEIK", "recorded-number": 9.69}
{"binder": "104349_VH5_VK2D28Q (antibody, V domains shown, Human IgG1 Fc domain with the N297A point mutation) VH: EVQLVQSGAEVKKPGESLKISCKGSGYAFTNYLIEWVRQMPGKGLEWMGVINPGSGGTNYNEKFKGQVTISADKSISTAYLQWSSLKASDTAMYYCARWRGDGYYAYFDVWGQGTTVTVSS VL: DIVLTQSPLSLPVTLGQPASISCKASQSVDYQGDSYMNWYQQRPGQSPRLLIYAASNLESGVPDRFSGSGSGTDFTLKISRVEAEDVGVYYCQQSNEDPYTFGGGTKVEIK", "recorded-number": 10.16}
